# Assay Details: Displacement of [125I]IMPY from amyloid beta42 by gamma counting
Assay Readout: Ki (nM)

{"Substance Smiles": "OCCOc1ccc(-c2cc3cc(I)ccc3[nH]2)cc1", "Ki, nM": 25.9}

A: Oc1ccc(-c2cc3cc(I)ccc3[nH]2)cc1
B: COc1ccc(-c2cc3cc(I)ccc3[nH]2)cc1
Qu. Smaller Ki value, A vs B ? Answer by stating the label of the chosen item.
Ans. B

I: CNc1ccc(-c2cc3cc(I)ccc3[nH]2)cc1
II: CN(C)c1ccc(-c2cc3cc(I)ccc3[nH]2)cc1
Qu. Which record would sort first by descending Ki, I or II ? Answer by stating the label of the chosen item.
Ans. I
